- experiment.description: Quantitative High-Throughput drug screen in 47 multiple myeloma cell lines against the NCATS MIPE library collection: MMM1_PLB cell viability assay (AID 1918976); note: nearly all actives have a fitted effect of over 35% in size
- experimental.context: MMM1 myeloma cells viability, CellTiter-Glo, 48 h; series mostly up to 45.8 µM
Results filed as inconclusive are left out. The source made the active and inactive calls. Calls come from the whole dose curve; as a rule, active = well fitted cell-killing curve with a large enough effect; inconclusive = small, poorly fitted or top-dose-only effect, or effect the other way; inactive = no such curve, though single readings can be large or run the other way.
Hi! Could you answer with just one of these? active, inactive

Solved cases (4 shown):
compound=COCCOc1nc(-c2ccc(Cl)c(Cl)c2)n(-c2ccc(NC(=O)CCl)cc2)n1 answer_label=active
compound=CCN(CC)CCOc1ccc(C(=C(Cl)c2ccccc2)c2ccccc2)cc1 answer_label=inactive
compound=O=c1cc(CN2CCOCC2)occ1OCCCCCSc1ccnc2cc(C(F)(F)F)ccc12 answer_label=active
compound=Oc1ccc(C2CCN(c3ccnc4ccccc34)CC2)cc1O answer_label=active

Attention now turns to another entry.
// query I would be grateful if you could indicate the recorded call for CC(=O)Oc1cc2c(s1)CCN(C(C(=O)C1CC1)c1ccccc1F)C2 (stereo not given) .
// result active

====

- experiment.description: Cytotoxicity counterscreen for NFkB agonists and antagonists (AID 624476);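 note: cells exposed to compound for 48 hours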
- experimental.context: NFkB reporter cell line viability counterscreen; series mostly up to 46.1 µM
Records with an inconclusive call do not appear. Calls of active or inactive are those of the source. Calls follow the shape of the dose curve; as a rule, active = well fitted curve in the direction sought with a large enough effect; inconclusive = small, poorly fitted or top-dose-only effect, or another doubt; inactive = no such curve, though single readings can be large or run the other way.
Hi! Could you answer with just one of these? active, inactive

Solved cases (10 shown):
compound=CC(=O)Nc1ccc([C@H](C)C(=O)Nc2ncc(C(C)C)s2)cc1 answer_label=active
compound=CC(C)(C)COc1ccc(-n2cc(C(=O)O)cn2)cc1C#N answer_label=inactive
compound=CN(C)C1CCN(C(=O)c2ccc(NC(=O)Nc3nc(N4CCOCC4)nc(N4CCOCC4)n3)cc2)CC1 answer_label=active
compound=O=C(CCCCCCC(=O)Nc1ccccc1)NO answer_label=active
compound=CC(C)(C(=O)NCC(F)(F)C(F)(F)F)C(=O)N[C@@H]1C(=O)Nc2ccccc2-c2ccccc21 answer_label=inactive
compound=COc1cc2ncnc(Nc3ccc(F)c(Cl)c3)c2cc1OCCCN1CCOCC1 answer_label=inactive
compound=COc1ncc(-c2ccc3nccc(-c4ccnnc4)c3c2)cc1NS(=O)(=O)c1ccc(F)cc1F answer_label=active
compound=CC(C)(C)C(=O)Oc1ccc2c(c1)nc(NC(=O)c1cccc([N+](=O)[O-])c1)n2CCCO answer_label=inactive
compound=CC(=O)N(C)C1(c2ccccc2)CCN(CCC[C@]2(c3ccc(Cl)c(Cl)c3)CCCN(C(=O)c3ccccc3)C2)CC1 answer_label=active
compound="CS(=O)c1ccc(-c2nc(-c3ccc(F)cc3)c(-c3ccncc3)[nH]2)cc1 (stereo unspecified)" answer_label=inactive

// query I would be grateful if you could indicate the recorded call for `CC1=C(/C=C/C(C)=C/C=C/C(C)=C/C(=O)Nc2ccc(O)cc2)C(C)(C)CCC1` .
// result active

// query I would be grateful if you could indicate the recorded call for `COc1cc(Nc2ncc(F)c(Nc3ccc4c(n3)NC(=O)C(C)(C)O4)n2)cc(OC)c1OC` .
// result active

// query I would be grateful if you could indicate the recorded call for `O=C(O)c1ccc(-c2cc3cccnc3c(-c3ccc4nonc4c3)n2)cc1` .
// result inactive

// query I would be grateful if you could indicate the recorded call for `CO[C@@H](C(=O)N1Cc2[nH]nc(NC(=O)c3ccc(N4CCN(C)CC4)cc3)c2C1)c1ccccc1` .
// result inactive

====

- target.under.test: Tyrosine-protein phosphatase non-receptor type substrate 1 (Homo sapiens) + Leukocyte surface antigen CD47 (Homo sapiens) (UniProt P78324+Q08722)
- Sequence (P78324 whole entry, looked up): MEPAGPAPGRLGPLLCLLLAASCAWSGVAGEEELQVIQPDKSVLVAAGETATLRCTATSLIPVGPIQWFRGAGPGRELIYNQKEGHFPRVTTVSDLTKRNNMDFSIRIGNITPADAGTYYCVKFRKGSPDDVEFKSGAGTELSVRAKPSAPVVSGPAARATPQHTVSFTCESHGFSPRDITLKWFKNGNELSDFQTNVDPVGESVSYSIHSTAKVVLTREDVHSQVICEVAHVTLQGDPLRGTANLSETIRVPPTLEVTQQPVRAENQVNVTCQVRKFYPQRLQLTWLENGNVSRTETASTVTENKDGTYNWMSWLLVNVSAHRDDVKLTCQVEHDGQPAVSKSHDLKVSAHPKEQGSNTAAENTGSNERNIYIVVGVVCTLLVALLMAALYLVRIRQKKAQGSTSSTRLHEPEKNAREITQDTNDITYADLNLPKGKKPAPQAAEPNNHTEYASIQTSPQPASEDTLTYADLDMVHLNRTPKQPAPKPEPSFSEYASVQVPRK
- Sequence (Q08722 whole entry, looked up): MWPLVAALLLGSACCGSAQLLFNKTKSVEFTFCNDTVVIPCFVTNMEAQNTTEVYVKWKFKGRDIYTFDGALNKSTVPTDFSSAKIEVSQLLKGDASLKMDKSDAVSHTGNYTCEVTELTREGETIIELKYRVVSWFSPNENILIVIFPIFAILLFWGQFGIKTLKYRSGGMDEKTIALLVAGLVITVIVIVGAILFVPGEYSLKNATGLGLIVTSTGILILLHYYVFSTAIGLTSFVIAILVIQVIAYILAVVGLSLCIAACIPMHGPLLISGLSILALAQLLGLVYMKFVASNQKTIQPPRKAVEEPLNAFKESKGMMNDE
- experiment.description: CD47-SIRPalpha protein protein interaction - LANCE assay qHTS validation (AID 1347057)
- experimental.context: Recombinant CD47-His / biotin-SIRPalpha, TR-FRET ratio; series mostly up to 38.3 µM
Results filed as inconclusive are left out. The source made the active and inactive calls. The call rests on the fitted dose curve; in most records, active means well fitted curve in the direction sought with a large enough effect in the signal ratio, with a control signal flat (not every such curve was filed as active); inconclusive means small, poorly fitted or top-dose-only effect, or effect the other way, or a change in a side signal; inactive means no such curve, though single readings can be large or run the other way; the % refers to the signal ratio.
reported.endpoint: outcome

compound=CC1(C)CCC2=C(O1)c1ccccc1C(=O)C2=O assay_value=inactive
compound=CCn1cc(C(=O)O)c(=O)c2ccc(C)nc21 assay_value=inactive
compound=C[N+](C)(C)CCCCCC[N+](C)(C)C assay_value=inactive
compound="CN(C)CCC(c1ccccc1)c1ccccn1 (stereo not drawn)" assay_value=inactive
compound=O=C(NCCN1CCOCC1)c1ccc(Cl)cc1 assay_value=inactive
compound="CC(C)(C)c1ccc(C(O)CCCN2CCC(C(O)(c3ccccc3)c3ccccc3)CC2)cc1 (stereo not drawn)" assay_value=inactive
compound=Clc1ccc(Cn2c(CN3CCCC3)nc3ccccc32)cc1 assay_value=inactive
compound=CC(=O)N[C@@H](CS)C(=O)O assay_value=inactive

For reference, reported outcome for `O=C1NC(=O)C(c2ccccc2)(c2ccccc2)N1` stands at inactive

====

- target.under.test: Single-stranded DNA cytosine deaminase (Homo sapiens) (UniProt Q9GZX7)
- Sequence (Q9GZX7 whole entry, looked up): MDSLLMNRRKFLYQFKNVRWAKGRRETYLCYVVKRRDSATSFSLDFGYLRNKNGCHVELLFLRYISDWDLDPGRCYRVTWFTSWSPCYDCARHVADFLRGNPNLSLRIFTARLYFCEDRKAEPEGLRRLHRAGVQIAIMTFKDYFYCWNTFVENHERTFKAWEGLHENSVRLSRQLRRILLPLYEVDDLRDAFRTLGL
- experiment.description: Validation qHTS assay for inhibitors of Activation Induced Cytidine Deaminase (AID): AID signal (AID 1347429)
- experimental.context: Recombinant AID, FRET ssDNA deamination with UDG, fluorescence; series mostly up to 115 µM
Active and inactive are the calls of the source. The call rests on the fitted dose curve; in most records, active means well fitted inhibition curve with a large enough effect; inconclusive means small, poorly fitted or top-dose-only effect; inactive means no such curve, though single readings can be large or run the other way.
Hi! Could you answer with just one of these? active, inactive

compound=O=c1cc(-c2ccc(O)cc2)oc2cc(O)cc(O)c12 answer_label=inactive
compound=NC(N)=Nc1nc(CSCC/C(N)=N/S(N)(=O)=O)cs1 answer_label=inactive
compound=CCCNC(=O)NS(=O)(=O)c1ccc(Cl)cc1 answer_label=inactive
compound="Cc1cccc(C)c1OCC(C)N (stereo unspecified)" answer_label=inactive
compound=CC1(C)CCC2=C(O1)c1ccccc1C(=O)C2=O answer_label=active
compound=CC(=O)c1ccc(S(=O)(=O)NC(=O)NC2CCCCC2)cc1 answer_label=inactive

// query I would be grateful if you could indicate the recorded call for `CC(=O)N[C@@H](CS)C(=O)O` .
// result inactive

// query I would be grateful if you could indicate the recorded call for `C[N+](C)(C)CCCCCC[N+](C)(C)C` .
// result inactive

====

- experiment.description: Quantitative High-Throughput drug screen in 47 multiple myeloma cell lines against the NCATS MIPE library collection: MOLP8_DSMZ cell viability assay (AID 1918977); note: nearly all actives have a fitted effect of over 45% in size
- experimental.context: MOLP8 myeloma viability, CellTiter-Glo ATP luminescence, 48 h; series mostly up to 45.8 µM
Inconclusive results are not listed. Activity calls are given as the source filed them. Calls come from the whole dose curve; as a rule, active = well fitted cell-killing curve with a large enough effect; inconclusive = small, poorly fitted or top-dose-only effect, or effect the other way; inactive = no such curve, though single readings can be large or run the other way.
Hi! Could you answer with just one of these? active, inactive

Solved cases (3 shown):
molecule="C=C1C(=O)OC(CCCCCCCC)C1C(=O)O (centres undefined)" answer_label=inactive
molecule=CC(C)=CC[C@@H](O)C1=CC(=O)c2c(O)ccc(O)c2C1=O answer_label=active
molecule=Cc1c(O)cccc1C(=O)N[C@@H](CSc1ccccc1)[C@H](O)CN1C[C@H]2CCCC[C@@H]2C[C@@H]1C(=O)NC(C)(C)C answer_label=active

// query I would be grateful if you could indicate the recorded call for `O=C1NC(=O)C(=Cc2ccc3c(c2)OC(F)(F)O3)S1` .
// result inactive

// query I would be grateful if you could indicate the recorded call for CC(C(=O)O)c1ccc(-c2ccccc2)c(F)c1 (centres undefined) .
// result inactive

====

- experiment.description: Identifying Small Molecule Inhibitors of Pancreatic Cancer Stem Cells (A278, Adherent) (AID 1259361);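 note: viability read after 48 h compound exposure; nearly all actives have a fitted effect of over 35% in size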
- experimental.context: series mostly up to 46.1 µM
Inconclusive results are not listed. The source made the active and inactive calls. Calls follow the shape of the dose curve; as a rule, active = well fitted cell-killing curve with a large enough effect; inconclusive = small, poorly fitted or top-dose-only effect; inactive = flat fitted curve, though single readings scatter.
Below: a set of entries, each annotated with reported IC50 (viability decrease).

Solved cases (4 shown):
molecular_string=CO[C@@H](C(=O)N1Cc2[nH]nc(NC(=O)c3ccc(N4CCN(C)CC4)cc3)c2C1)c1ccccc1 reported_endpoint="IC50 (viability decrease)" assay_value="0.0935 µM (active)"
molecular_string=Cc1ccc(F)c(NC(=O)Nc2ccc(-c3cccc4[nH]nc(N)c34)cc2)c1 reported_endpoint="IC50 (viability decrease)" assay_value="26.4 µM (active)"
molecular_string=O=C(CCCCCCC(=O)Nc1ccccc1)NO reported_endpoint="IC50 (viability decrease)" assay_value="3.4 µM (active)"
molecular_string=CCOc1ccc(Nc2nc(-c3c(C)nc4ccccn34)cs2)cc1 reported_endpoint="IC50 (viability decrease)" assay_value="0.0264 µM (active)"

Now consider a different compound.
For reference, reported IC50 (viability decrease) for `CC1=C(/C=C/C(C)=C/C=C/C(C)=C/C(=O)Nc2ccc(O)cc2)C(C)(C)CCC1` stands at 3.32 µM (active)

====

- experiment.description: Quantitative High-Throughput drug screen in 47 multiple myeloma cell lines against the NCATS MIPE library collection: AMO1_DSMZ cell viability assay (AID 1918927; note: nearly all actives have a fitted effect of over 30% in size)
- experimental.context: AMO1 myeloma cells viability, CellTiter-Glo ATP luminescence, 48 h; series mostly up to 45.8 µM
Results filed as inconclusive are left out. Activity calls are given as the source filed them. The call rests on the fitted dose curve; in most records, active means well fitted cell-killing curve with a large enough effect; inconclusive means small, poorly fitted or top-dose-only effect, or effect the other way; inactive means no such curve, though single readings can be large or run the other way.
Hi! Could you answer with just one of these? active, inactive

// query I would be grateful if you could indicate the recorded call for `O=C1C(Cl)=C(NCCN2CCOCC2)C(=O)c2ncccc21` .
// result active

// query I would be grateful if you could indicate the recorded call for O=C(O)CCC1CCC(c2cc(F)ccc2F)(S(=O)(=O)c2ccc(Cl)cc2)CC1 (stereo unspecified) .
// result active

// query I would be grateful if you could indicate the recorded call for `CCc1ccc(OCc2ccccc2C(=O)Nc2ccc3nc(C)cc(N)c3c2)cc1` .
// result active
